The measured values listed here are drawn from patent US11510931B2.

- PROCEDURE TEXT: Ocular biodistribution of PS after topical eye drops in New Zealand white rabbits (HPLC)
- Type: in vivo, rabbit
- SETUP CONDITIONS: New Zealand white, rabbit, aqueous humor, topical, 3 % PS, 5 h; topical, sodium alginate/Tween 80 in-situ gel, 3% PS; read-out: PS in Aqueous humor
- Method: Results: The above PS formulation was administered topically as eye drops to the eyes of New Zealand white rabbits. The levels of PS in ocular tissues 1 h and 3 h later were determined by HPLC. The Table below summarizes the findings: Results: The above PS formulation was administered topically as eye drops to the eyes of New Zealand white rabbits. The levels of PS in ocular tissues at 2 h later were determined by HPLC. The table below summarizes the findings. […]
METRIC: concentration at 5 h (nM)
Number only, in nM; omit the unit.

// field: concentration at 5 h; key: CCOP(=O)(OCC)OCCCCOC(=O)CC1=C(C)/C(=C/c2ccc([S+](C)[O-])cc2)c2ccc(F)cc21 (stereo not shown) ; value = 0
